assayProcedure: Mouse liver microsomal intrinsic clearance
Format: in vitro ADME
conditionNotes: supplement sheet
readoutKind: Cli (mouse, ml/min/g) (mL/min/g)
Value expressed in mL/min/g; do not type the unit.

# compound, unitSpec, Cli (mouse, ml/min/g)
records = [
    ("COc1ccccc1-c1nc(C(=O)N[C@H]2CC[C@H](OC)CC2)c(O)c2ncccc12", "mL/min/g", 1.4),
]

## Input Which Cli (mouse, ml/min/g) value is on record for Cc1n[nH]c(-c2nc(N3CCOCC3)c3cccnc3c2O)n1 ?
## Output 3.1

## Input Which Cli (mouse, ml/min/g) value is on record for O=C(NCc1ccc(Cl)cc1)c1nc(NC2CCOCC2)c2cccnc2c1O ?
## Output 2.2

## Input Which Cli (mouse, ml/min/g) value is on record for COc1ccccc1-c1nc(-c2nc(C)n[nH]2)c(O)c2ncccc12 ?
## Output 0.8

## Input Which Cli (mouse, ml/min/g) value is on record for O=C(NCc1ccc(F)cc1)c1nc(N2CCCCS2(=O)=O)c2cccnc2c1O [Compound 30, reference compound] ?
## Output 2

## Input Which Cli (mouse, ml/min/g) value is on record for Cc1n[nH]c(-c2nc(-c3ccccc3)c3cccnc3c2O)n1 ?
## Output 9.4

## Input Which Cli (mouse, ml/min/g) value is on record for Cc1n[nH]c(-c2nc(NCc3ccc(Cl)cc3)c3cccnc3c2O)n1 ?
## Output 3.4

###

assayProcedure: Mouse liver microsomal intrinsic clearance
Type: in vitro ADME
conditionNotes: mouse liver microsomes
A collection of molecules and their measured Cli (mouse liver microsomal intrinsic clearance)
Value expressed in mL/min/g; do not type the unit.

# compoundStructure, measurement
rows = [
    ("O=C(NCc1ccc(Cl)cc1)c1nc(NC2CCOCC2)c2cccnc2c1O", 2.2),
]

## Input Which Cli (mouse liver microsomal intrinsic clearance) value is on record for COc1ccccc1-c1nc(C(=O)N[C@H]2CC[C@H](OC)CC2)c(O)c2ncccc12 ?
## Output 1.4

###

assayProcedure: Mouse liver microsomal intrinsic clearance
Type: in vitro ADME
conditionNotes: mouse liver microsomes
Simple rule here: Cli (mouse liver microsomal intrinsic clearance) less than 3 mL/min/g is met, otherwise not met.

Illustrative cases are given below, each with its answer.
# molecule, qualitativeLabel
rows = [
    ("CNc1nc(-c2nc(C)n[nH]2)c(O)c2ncccc12", "not met"),
    ("Cc1n[nH]c(-c2nc(-c3ccccc3)c3cccnc3c2O)n1", "not met"),
    ("Cc1n[nH]c(-c2nc(N3CCCC3=O)c3cccnc3c2O)n1", "met"),
    ("COc1ccccc1-c1nc(-c2nnc(C)o2)c(O)c2ncccc12", "met"),
    ("Cc1n[nH]c(-c2nc(N3CCOCC3)c3cccnc3c2O)n1", "not met"),
]

Turning to the following molecule.
## Input Does the reported Cli (mouse liver microsomal intrinsic clearance) of the following molecule sit strictly below 3 mL/min/g? COc1ccccc1-c1nc(-c2nc(C)n[nH]2)c(O)c2ncccc12
## Output met

###

assayProcedure: Chrom Log D pH7.4
Format: physicochemical
conditionNotes: supplement sheet
A collection of compounds and their measured ChromLogD
Response field accepts a number only; no unit should be typed.

# example entries with known answers
# compound, ChromLogD
rows = [
    ("COc1ccccc1-c1nc(-c2nc(C)n[nH]2)c(O)c2ncccc12 [Compound 16]", 3.2),
    ("Cc1n[nH]c(-c2nc(N3CCOCC3)c3cccnc3c2O)n1 [Compound 11]", 1.8),
    ("CNc1nc(-c2nc(C)n[nH]2)c(O)c2ncccc12 [Compound 8]", -0.2),
    ("Cc1n[nH]c(-c2nc(NCc3ccc(Cl)cc3)c3cccnc3c2O)n1 [Compound 10]", 4.4),
]

As a next step, examine the compound that follows.
## Input Which ChromLogD value is on record for O=C(NCc1ccc(Cl)cc1)c1nc(NC2CCOCC2)c2cccnc2c1O [Compound 31] ?
## Output 5.3
